System: production and secretion of NGF in mouse L-M cells
TEST DESCRIPTION: Promoting activity for the production and secretion of NGF in mouse L-M cells (ELISA of medium after 24 h)
Type: cell-based
RECORDED CONDITIONS: Table 2; L-M cells; sample concentration 0.2 mM; 24 hours; mean of four determinations; control 0.34
Please go through the items and note down their NGF Concentration.
Form field: result (number plus unit)

Return reported NGF Concentration. Input molecule: CCCNC(=O)CCc1ccc(O)c(O)c1 2.01 ng/well

Return reported NGF Concentration. Input molecule: COC(=O)Cc1ccc(O)c(O)c1 1.63 ng/well

Return reported NGF Concentration. Input molecule: CC(=O)Oc1ccc(CCC(N)=O)cc1OC(C)=O 2.01 ng/well

Return reported NGF Concentration. Input molecule: CCCCNC(=O)Cc1ccc(O)c(O)c1 1.99 ng/well

---

System: production and secretion of NGF in mouse L-M cells
TEST DESCRIPTION: Promoting activity for the production and secretion of NGF in mouse L-M cells (ELISA of medium after 24 h)
Format: cell-based
RECORDED CONDITIONS: Table 1; L-M cells; sample concentration 0.2 mM; 24 hours; mean of four determinations; control 0.33
Please go through the items and note down their NGF Concentration.
API: value field is a number in ng/well; no unit string.

Return reported NGF Concentration. Input molecule: CCCNCCCc1ccc(O)c(O)c1 [Compound 28] 2.79

Return reported NGF Concentration. Input molecule: CCCC(=O)NCc1ccc(O)c(O)c1 [Compound 6] 2.95

Return reported NGF Concentration. Input molecule: CCNCc1ccc(O)c(O)c1 [Compound 23] 3.08

Entry source: patent US5232923A
